System: 407 cancer cell lines
Test: Cell viability of cancer cell lines (IC50), CellTiter-Glo Viability Assay, 96 h
Assay type: cell-based
Conditions: Homo sapiens, U-87 MG, 96 h, U-87 MG cells, 96 h; read-out: Absolute IC50
MEASURE_NAME: IC50 (µM)
Field: numeric (µM). Do not append units.

Record "Cc1nn(-c2nc(-c3ccc(C(F)(F)F)cc3)c(SC(C)C)s2)c(C(=O)O)c1-c1cccc(F)c1" , field IC50: 24.9

====

Test system: 407 cancer cell lines
Experiment: Cell viability of cancer cell lines (IC50), CellTiter-Glo Viability Assay, 96 h
Format: cell-based
Settings: AGS cells, 96 h; read-out: Absolute IC50
MEASURE_NAME: IC50 (µM)
Field: numeric (µM). Do not append units.

Record N.N.[Cl][Pt][Cl] [Cisplatin, reference compound] , field IC50: 4.99

====

System: 407 cancer cell lines
Test: Cell viability of cancer cell lines (IC50), CellTiter-Glo Viability Assay, 96 h
Assay type: cell-based
Conditions: SW948 cells, 96 h; read-out: Absolute IC50
MEASURE_NAME: IC50 (µM)
Field: numeric (µM). Do not append units.

Sample N.N.[Cl][Pt][Cl] [Cisplatin, reference compound] , system: 407 cancer cell lines. Its IC50 is 17.8

====

Tested on: 407 cancer cell lines
Test: Cell viability of cancer cell lines (IC50), CellTiter-Glo Viability Assay, 96 h
Assay type: cell-based
Conditions: Homo sapiens, Daudi, 96 h, Daudi cells, 96 h; read-out: Absolute IC50
MEASURE_NAME: pIC50
Interpret pIC50 as the negative base-10 log of the concentration measured in mol/L.

Sample "Cc1nn(-c2nc(-c3ccc(C(F)(F)F)cc3)c(SC(C)C)s2)c(C(=O)O)c1-c1cccc(F)c1" , system: 407 cancer cell lines. Its pIC50 is 6.09

====

System: 407 cancer cell lines
Test: Cell viability of cancer cell lines (IC50), CellTiter-Glo Viability Assay, 96 h
Type: cell-based
Details: JVM-13; read-out: Absolute IC50
Experimental: Viability was determined by using the 50% inhibitory concentration (IC50) as determined with the CellTiter-Glo® Viability Assay (Promega). Experiments were initiated by first thawing and equilibrating the CellTiter-Glo® Buffer to room temperature. The lyophilized CellTiter-Glo® Substrate was also equilibrated to room temperature. […] Cells were harvested during the logarithmic growth period, counted, and the cell concentration adjusted to 4.44×10^4 cells/mL using culture medium. […]
MEASURE_NAME: IC50 (nM)
Field: numeric (nM). Do not append units.

Record N.N.[Cl][Pt][Cl] [Cisplatin, reference compound] , field IC50: 540

====

Tested on: 407 cancer cell lines
Experiment: Cell viability of cancer cell lines (IC50), CellTiter-Glo Viability Assay, 96 h
Assay type: cell-based
Details: Homo sapiens, NCI-H187, NCI-H187; read-out: Absolute IC50
MEASURE_NAME: pIC50
Interpret pIC50 as the negative base-10 log of the concentration measured in mol/L.

Record "Cc1nn(-c2nc(-c3ccc(C(F)(F)F)cc3)c(SC(C)C)s2)c(C(=O)O)c1-c1cccc(F)c1" , field pIC50: 6.48

====

Test system: 407 cancer cell lines
Assay: Cell viability of cancer cell lines (IC50), CellTiter-Glo Viability Assay, 96 h
Type: cell-based
Conditions: EFM-192A, 96 h; read-out: Absolute IC50
MEASURE_NAME: IC50 (µM)
Field: numeric (µM). Do not append units.

Record N.N.[Cl][Pt][Cl] [Cisplatin, reference compound] , field IC50: 11.3

====

System: 407 cancer cell lines
Test: Cell viability of cancer cell lines (IC50), CellTiter-Glo Viability Assay, 96 h
Format: cell-based
Details: TJ905 cells, 96 h; read-out: Absolute IC50
MEASURE_NAME: pIC50
Interpret pIC50 as the negative base-10 log of the concentration measured in mol/L.

Record N.N.[Cl][Pt][Cl] [Cisplatin, reference compound] , field pIC50: 5.02

====

System: 407 cancer cell lines
Assay: Cell viability of cancer cell lines (IC50), CellTiter-Glo Viability Assay, 96 h
Type: cell-based
Conditions: DMS 114 cells, 96 h; read-out: Absolute IC50
MEASURE_NAME: pIC50
Interpret pIC50 as the negative base-10 log of the concentration measured in mol/L.

Sample N.N.[Cl][Pt][Cl] [Cisplatin, reference compound] , system: 407 cancer cell lines. Its pIC50 is 5.69

====

Test system: JHH-6
Test: Cell viability, CellTiter-Glo, 96 h: JHH-6
Format: cell-based
Conditions: read-out: Absolute IC50
MEASURE_NAME: IC50 (µM)
Field: numeric (µM). Do not append units.

Sample N.N.[Cl][Pt][Cl] [Cisplatin, reference compound] , system: JHH-6. Its IC50 is 3.12

====

Test system: 407 cancer cell lines
Assay: Cell viability of cancer cell lines (IC50), CellTiter-Glo Viability Assay, 96 h
Format: cell-based
Settings: SNU-739; read-out: Absolute IC50
MEASURE_NAME: pIC50
Interpret pIC50 as the negative base-10 log of the concentration measured in mol/L.

Record N.N.[Cl][Pt][Cl] [Cisplatin, reference compound] , field pIC50: 6.09

====

Tested on: 407 cancer cell lines
Test: Cell viability of cancer cell lines (IC50), CellTiter-Glo Viability Assay, 96 h
Type: cell-based
Settings: PL45, PL45; read-out: Absolute IC50
MEASURE_NAME: pIC50
Interpret pIC50 as the negative base-10 log of the concentration measured in mol/L.

Record "Cc1nn(-c2nc(-c3ccc(C(F)(F)F)cc3)c(SC(C)C)s2)c(C(=O)O)c1-c1cccc(F)c1" , field pIC50: 5.92

====

System: 407 cancer cell lines
Test: Cell viability of cancer cell lines (IC50), CellTiter-Glo Viability Assay, 96 h
Format: cell-based
Settings: Homo sapiens, RS4-11, RS4;11; read-out: Absolute IC50
MEASURE_NAME: IC50 (nM)
Field: numeric (nM). Do not append units.

Record "Cc1nn(-c2nc(-c3ccc(C(F)(F)F)cc3)c(SC(C)C)s2)c(C(=O)O)c1-c1cccc(F)c1" , field IC50: 690

====

Tested on: 407 cancer cell lines
Experiment: Cell viability of cancer cell lines (IC50), CellTiter-Glo Viability Assay, 96 h
Assay type: cell-based
Conditions: Hep G2; read-out: Absolute IC50
MEASURE_NAME: pIC50
Interpret pIC50 as the negative base-10 log of the concentration measured in mol/L.

Record N.N.[Cl][Pt][Cl] [Cisplatin, reference compound] , field pIC50: 5.35

====

Test system: 407 cancer cell lines
Experiment: Cell viability of cancer cell lines (IC50), CellTiter-Glo Viability Assay, 96 h
Type: cell-based
Conditions: M059K cells, 96 h; read-out: Absolute IC50
MEASURE_NAME: pIC50
Interpret pIC50 as the negative base-10 log of the concentration measured in mol/L.

Record N.N.[Cl][Pt][Cl] [Cisplatin, reference compound] , field pIC50: 5.58

====

Test system: 407 cancer cell lines
Experiment: Cell viability of cancer cell lines (IC50), CellTiter-Glo Viability Assay, 96 h
Format: cell-based
Conditions: Homo sapiens, NCI-H1048, 96 h, NCI-H1048 cells, 96 h; read-out: Absolute IC50
MEASURE_NAME: IC50

Record Cc1nn(-c2nc(-c3ccc(C(F)(F)F)cc3)c(SC(C)C)s2)c(C(=O)O)c1-c1cccc(F)c1 [Compound A197] , field IC50: > 30 µM

====

Test system: 407 cancer cell lines
Assay: Cell viability of cancer cell lines (IC50), CellTiter-Glo Viability Assay, 96 h
Assay type: cell-based
Details: NCI-H446 cells, 96 h; read-out: Absolute IC50
MEASURE_NAME: pIC50
Interpret pIC50 as the negative base-10 log of the concentration measured in mol/L.

Sample N.N.[Cl][Pt][Cl] [Cisplatin, reference compound] , system: 407 cancer cell lines. Its pIC50 is 5.71

====

System: 407 cancer cell lines
Assay: Cell viability of cancer cell lines (IC50), CellTiter-Glo Viability Assay, 96 h
Assay type: cell-based
Details: Homo sapiens, ZR-75-1, ZR-75-1; read-out: Absolute IC50
MEASURE_NAME: pIC50
Interpret pIC50 as the negative base-10 log of the concentration measured in mol/L.

Record Cc1nn(-c2nc(-c3ccc(C(F)(F)F)cc3)c(SC(C)C)s2)c(C(=O)O)c1-c1cccc(F)c1 [Compound A197] , field pIC50: 5.11

====

Tested on: 407 cancer cell lines
Assay: Cell viability of cancer cell lines (IC50), CellTiter-Glo Viability Assay, 96 h
Format: cell-based
Conditions: Homo sapiens, OCI-AML-3, OCI-AML3; read-out: Absolute IC50
MEASURE_NAME: IC50

Record Cc1nn(-c2nc(-c3ccc(C(F)(F)F)cc3)c(SC(C)C)s2)c(C(=O)O)c1-c1cccc(F)c1 [Compound A197] , field IC50: > 30 µM
